- Tested on: Toxoplasma gondii RH-2F tachyzoites
- assay: microbe, parasite or virus in culture
- experimentalSetup: 72 h, read-out: Parasite inhibition (%) mean, preliminary screen of compound library, mean
Where a name gives a salt, the structure may show the parent alone.

| compound | targetSystem | inhibition of growth at 5 µM |
| --- | --- | --- |
| N#CCNC(=O)c1ccc(-c2ccnc(Nc3ccc(N4CCOCC4)cc3)n2)cc1 [Cyt387] | Toxoplasma gondii RH-2F tachyzoites | 28.9% |
| Cc1csc(-c2nnc(Nc3ccc(Oc4ncccc4-c4ccnc(N)n4)cc3)c3ccccc23)c1 [AMG 900] | Toxoplasma gondii RH-2F tachyzoites | 85.9% |
| C=C[C@H]1C[N@@]2CC[C@H]1C[C@H]2[C@H](O)c1ccnc2ccc(OC)cc12 [Quinine hydrochloride dihydrate] | Toxoplasma gondii RH-2F tachyzoites | 78.9% |
| Cc1ccc([C@@H]2O[C@H](CO)[C@@H](O)[C@H](O)[C@H]2O)cc1Cc1ccc(-c2ccc(F)cc2)s1 [Canagliflozin] | Toxoplasma gondii RH-2F tachyzoites | 0.5% |
| CCc1cc2c(cc1N1CCC(N3CCOCC3)CC1)C(C)(C)c1[nH]c3cc(C#N)ccc3c1C2=O [CH5424802] | Toxoplasma gondii RH-2F tachyzoites | 46.1% |
| C[C@@H]1COC(Nc2ccc3ncnc(Nc4ccc(OCc5nccs5)c(Cl)c4)c3c2)=N1 [ARRY334543] | Toxoplasma gondii RH-2F tachyzoites | 12.4% |

* * *

- assay: in vitro
- experimentalSetup: human, Host viability (%) mean
attributeMeasured: viability at 72 h (%)

| molecule | unitString | resultValue |
| --- | --- | --- |
| Nc1ccccc1NC(=O)c1ccc(CNc2nccc(-c3cccnc3)n2)cc1 | % | 80.2 |
| CC(=O)NCC(=O)N1[C@H]2CC[C@H]1c1cc(Nc3ncc(C(F)(F)F)c(NC4CCC4)n3)ccc12 | % | 60.3 |
| CN1CCN(C2CCN(C(=O)Nc3cc(Oc4ccc(NC(=O)C5(C(=O)Nc6ccc(F)cc6)CC5)c(F)c4)ccn3)CC2)CC1 [Golvatinib (E7050)] | % | 78.3 |
| COc1cc2nccc(Oc3ccc(NC(=O)C4(C(=O)Nc5ccc(F)cc5)CC4)cc3)c2cc1OC [Cabozantinib malate] | % | 43.1 |
| COc1cc2c(Nc3ccc(NC(=O)c4ccccc4)cc3)ncnc2cc1OCCCN1CCOCC1 | % | 31.2 |
| CNC(=O)c1c(F)cccc1Nc1nc(Nc2cc3c(cc2OC)CCN3C(=O)CN(C)C)nc2[nH]ccc12 [GSK1838705A] | % | 72.8 |
| CCc1cc(Nc2nccc(-c3c(-c4ccc(OC)c(C(=O)Nc5c(F)cccc5F)c4)nc4ccccn34)n2)c(OC)cc1N1CCC(N2CCN(S(C)(=O)=O)CC2)CC1 [GSK1904529A] | % | 76.8 |
| CCN1CCN(c2cc(-c3ccc(F)cc3)c3c(n2)CCCCCC3)CC1 | % | 88.3 |
| CC(C)C[C@@H](C(=O)N[C@H](C(=O)OC1CCCC1)c1ccccc1)[C@H](O)C(=O)NO | % | 88.8 |
| Cc1cc(Nc2cc(N3CCN(C)CC3)nc(Sc3ccc(NC(=O)C4CC4)cc3)n2)n[nH]1 | % | 34.7 |
| CCN(CC)CCCCNc1ncc2cc(-c3cc(OC)cc(OC)c3)c(NC(=O)NC(C)(C)C)nc2n1 | % | 58.8 |
| CN(C)c1ccc(-c2nc3c(N4CCN(CC(=O)Nc5nccs5)CC4)c(Cl)cnc3[nH]2)cc1 | % | 42.6 |
| CNC(=O)c1cc(Oc2ccc(NC(=O)Nc3ccc(Cl)c(C(F)(F)F)c3)c(F)c2)ccn1 | % | 68.2 |
| CCCNC(=O)Nc1ccc(Oc2ncnc3cc(OC)c(OC)cc23)cc1Cl | % | 70.6 |
| Nc1nccc(Oc2ccc(NC(=O)c3c[nH]cc(-c4ccc(F)cc4)c3=O)cc2F)c1Cl | % | 70.6 |
| Oc1cc(O)c(Cl)cn1 | % | 75.6 |
| CCS(=O)(=O)c1cccc(-c2cc(C(=O)NC3CCN(C)CC3)c(C)c3[nH]c4ncc(C)cc4c23)c1 | % | 52.7 |
| COc1ccc2c(Oc3ccc(NC(=O)c4c(C)n(CC(C)(C)O)n(-c5ccccc5)c4=O)nc3)ccnc2c1 | % | 75.9 |
| C[C@]1(O)C[C@@H](c2nc(-c3ccc4ccc(-c5ccccc5)nc4c3)c3c(N)nccn32)C1 | % | 72.2 |
| N#CC1(c2ccc(NC(=O)c3cccnc3NCc3ccncc3)cc2)CCCC1 | % | 63.8 |
| CNC1CCCN(c2c(F)cc3c(=O)c(C(=O)O)cn(C4CC4)c3c2OC)C1 (stereo not shown) | % | 76.4 |
| CCc1cccc(CC)c1NC(=O)N1Cc2n[nH]c(NC(=O)c3ccc(N4CCN(C)CC4)cc3)c2C1 | % | 45.2 |
